test system: Sinorhizobium meliloti AK631; assay: CFU determination of Sinorhizobium meliloti; conditions: 50 μg/ml, 1 hr
We begin with a simple list: items and their reported CFU (colony/ml).
Field: numeric (colony/ml). Do not append units.

NCR057: cationic NCR peptide (RPVSCKDHYDCRRKVKIVGCIFPQEKPMCINSMCTCIREIVP; Peptide derived from Medicago truncatula)    4500000

Report CFU (colony/ml) for NCR224: anionic NCR peptide (KDLPFNICEKDEDCLEFCAHDKVAKCMLNICFCF; Peptide derived from Medicago truncatula) please.
19600000

Which measured CFU (colony/ml) value corresponds to NCR035: cationic NCR peptide (SFLGTFISSCKRDKDCPKLYGANFRCRKGTCVPPI; Peptide derived from Medicago truncatula) ?
0

Which CFU (colony/ml) reading was recorded for the substance NCR247: cationic NCR peptide (RNGCIVDPRCPYQQCRRPLYCRRR; Peptide derived from Medicago truncatula) ?
0

Need CFU (colony/ml) of NCR055: cationic NCR peptide (VNDCIRIHCKDDFDCIENRLQVGCRLQREKPRCVNLVCRCLRR; Peptide derived from Medicago truncatula) , thanks.
0
